This collection of values is drawn from patent US9512125B2.

System: HUVEC with or without PBMC (3C, 4H, SAG and LPS systems)
Assay: BioMAP inflammation model systems (3C, 4H, SAG, LPS), cell-based ELISA profiling
Parameters: species or system human
Settings: 4 systems (3C, 4H, SAG, LPS); concentration of 5 micromolar; 24 h stimulation
MEASUREMENT TYPE: Activity

Below: 4 compounds and their reported Activity.
Clc1ncnc2c1c(-c1ccccc1)nn2Cc1ccccc1 | +
CC(C)(C)n1nc(-c2ccc(F)c3ccccc23)c2c(N)ncnc21 | active
CC(C)n1cc(-c2cccc(O)c2)c2c(NCc3ccccc3)ncnc21 | active
CC(C)(C)n1nc(-c2cccc([N+](=O)[O-])c2)c2c(N)ncnc21 | +

Consider the record given below.
Notebook entry, HUVEC with or without PBMC (3C, 4H, SAG and LPS systems) assay: Activity of CC(C)(C)n1nc(Cc2c(F)cccc2F)c2c(N)ncnc21 = ?
active
